Exercise: state measured Minimum inhibitory concentration, Pa FADDI-PA022 for each of the molecules provided.
system: Pseudomonas aeruginosa; details: Pseudomonas aeruginosa FADDI-PA022; broth microdilution in CAMHB
Positions of bridges follow the written chain, without caps; N, C: chain ends. Non-standard residues stand in square brackets, D forms with d. Residues, ends and D or L forms follow the SMILES beside them. *: point of attachment. Benzoyl(3,5-Cl2) = O=C(c1cc(Cl)cc(Cl)c1)*; Benzoyl(2,3-Cl2) = O=C(c1cccc(Cl)c1Cl)*; Dab = NCC[C@H](N)C(=O)O; Abu = CC[C@H](N)C(=O)O; Dap = NC[C@H](N)C(=O)O; PhAc = O=C(Cc1ccccc1)*
Remember to put the unit after the number in your answer.

Any idea what its Minimum inhibitory concentration, Pa FADDI-PA022 is? The molecule is CC[C@@H]1NC(=O)[C@@H](CC(C)C)NC(=O)[C@H](CCN)NC(=O)[C@@H](NC(=O)[C@H](CN)NC(=O)[C@@H](NC(=O)[C@H](CCN)NC(=O)c2cccc(Cl)c2Cl)[C@@H](C)O)CCNC(=O)[C@H]([C@@H](C)O)NC(=O)[C@H](CCN)NC(=O)[C@H](CCN)NC1=O [Compound 90] ({Benzoyl(2,3-Cl2)}-[Dab]T[Dap][Dab][Dab][dL][Abu][Dab][Dab]T; lactam 4-C)
2 µg/mL

Any idea what its Minimum inhibitory concentration, Pa FADDI-PA022 is? The molecule is CC(C)C[C@H]1NC(=O)[C@H](CCN)NC(=O)[C@@H](NC(=O)[C@H](CN)NC(=O)[C@@H](NC(=O)[C@H](CCN)NC(=O)c2cc(Cl)cc(Cl)c2)[C@@H](C)O)CCNC(=O)[C@H]([C@@H](C)O)NC(=O)[C@H](CCN)NC(=O)[C@H](CCN)NC(=O)[C@H]([C@@H](C)O)NC1=O [Compound 118] ({Benzoyl(3,5-Cl2)}-[Dab]T[Dap][Dab][Dab][dL]T[Dab][Dab]T; lactam 4-C)
2 µg/mL

Any idea what its Minimum inhibitory concentration, Pa FADDI-PA022 is? The molecule is CC(C)C[C@H]1NC(=O)[C@H](CCN)NC(=O)[C@@H](NC(=O)[C@@H](CO)NC(=O)[C@@H](NC(=O)[C@H](CCN)NC(=O)Cc2ccccc2)[C@@H](C)O)CCNC(=O)[C@H]([C@@H](C)O)NC(=O)[C@H](CCN)NC(=O)[C@H](CCN)NC(=O)[C@H]([C@@H](C)O)NC1=O [Compound 12] (PhAc-[Dab]T[dS][Dab][Dab][dL]T[Dab][Dab]T; lactam 4-C)
8 µg/mL
